System: UniProtKB P27338
Sequence (P27338 1-520): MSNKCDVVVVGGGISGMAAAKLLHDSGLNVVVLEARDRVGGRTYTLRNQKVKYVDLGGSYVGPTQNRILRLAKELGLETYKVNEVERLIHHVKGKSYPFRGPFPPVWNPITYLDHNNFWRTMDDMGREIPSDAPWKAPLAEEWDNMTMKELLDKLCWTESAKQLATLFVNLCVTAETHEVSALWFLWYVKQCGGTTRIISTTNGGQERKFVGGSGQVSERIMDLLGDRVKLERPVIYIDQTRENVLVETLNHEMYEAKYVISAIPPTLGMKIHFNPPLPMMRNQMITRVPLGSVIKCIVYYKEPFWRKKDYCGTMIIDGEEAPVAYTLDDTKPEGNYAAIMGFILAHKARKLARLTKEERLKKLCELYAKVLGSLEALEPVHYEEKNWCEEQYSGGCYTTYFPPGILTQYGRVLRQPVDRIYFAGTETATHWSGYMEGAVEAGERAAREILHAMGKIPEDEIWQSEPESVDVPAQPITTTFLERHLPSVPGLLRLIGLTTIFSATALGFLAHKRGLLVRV
Test Name: Inhibitory effects on the activity of MAO-B (Amplex Red fluorescence, benzylamine substrate)
Type: biochemical
Particulars: treatment concentration 10 nM; read-out: Inhibitory effects (%) on the activity of MAO-B
Experimental Endpoint: inhibition at 0.01 µM (%)

// known answers, use as guide
NC(=O)OCc1cc(-c2ccc(NCc3ccc(Cl)c(Cl)c3)cc2)no1 [Example 92] : 75.2
NC(=O)OCc1cc(-c2ccc(OCc3ccc4c(c3)OCO4)cc2)no1 [Example 203] : 93
NC(=O)OCc1cc(-c2ccc(OCc3ccccc3F)cc2)no1 [Example 11] : 101

A: NC(=O)OCc1cc(-c2ccc(OCc3ccc4ccccc4n3)cc2)no1 [Example 70]
B: c1ccc(COc2ccc(-c3cc(Cn4cncn4)on3)cc2)cc1 [Example 144]
Enquiry: Decide: A or B , by lowest recorded inhibition at 0.01 µM. Mark your answer with the label of the selected entry.
Return: A

----------
System: Monoamineoxidase B type human-derived enzyme (Homo sapiens, UniProt P27338)
Test Name: Inhibitory effects on the activity of MAO-B (Amplex Red fluorescence, benzylamine substrate)
Assay type: biochemical
Particulars: treatment concentration 10 nM; read-out: Inhibitory effects (%) on the activity of MAO-B
Experimental Endpoint: inhibition at 0.01 µM (%)

// known answers, use as guide
NC(=O)OCc1cc(-c2ccc(OCc3ccccc3)c(Br)c2)no1 : 90.7
NC(=O)OCc1cc(-c2ccc(OCc3ccc(C=NO)cc3)cc2)no1 : 92.3
NC(=O)OCc1cc(-c2ccc(NCc3cc(F)cc(F)c3)cc2)no1 : 56.5
NC(=O)CNCc1cc(-c2ccc(OCc3ccccc3)cc2)no1 : 66.1

I: NC(=O)OCc1cc(-c2ccc(OCc3ccc(F)c(F)c3)cc2)no1
II: c1ccc(COc2ccc(-c3cc(Cn4ccnn4)on3)cc2)cc1
Enquiry: Lab note: record which item had the higher inhibition at 0.01 µM, I or II . Mark your answer with the label of the selected entry.
Return: I
(I: 96.8%, II: 39.2%)

P: CN(C)Cc1cc(-c2ccc(OCc3ccccc3)cc2)no1
Q: O=C(OCc1cc(-c2ccc(OCc3ccccc3)cc2)no1)N1CCCC1
Enquiry: Decide: P or Q , by lowest recorded inhibition at 0.01 µM. Mark your answer with the label of the selected entry.
Return: Q

1: C#CCNCc1cc(-c2ccc(OCc3ccccc3)cc2)no1
2: NC(=O)OCc1cc(-c2ccc(NCc3cc(F)ccc3F)cc2)no1
3: Cc1ccc(CNc2ccc(-c3cc(COC(N)=O)on3)cc2)cc1
Enquiry: Thanks in advance: please rank these 3 entries by inhibition at 0.01 µM, highest to lowest. Reply with the item labels sorted in the order that was asked for.
Return: 1, 2, 3

a: NC(=O)OCc1cc(-c2ccc(OCc3c(Cl)cccc3Cl)cc2)no1
b: COCCNCc1cc(-c2ccc(OCc3ccccc3)cc2)no1
Enquiry: Lab note: record which item had the higher inhibition at 0.01 µM, a or b . Mark your answer with the label of the selected entry.
Return: a

P: NC(=O)OCc1cc(-c2ccc(NCc3ccccc3F)cc2)no1
Q: NC(=O)OCc1cc(-c2ccc(NCc3ccc(Cl)cc3Cl)cc2)no1
Enquiry: Lab note: record which item had the higher inhibition at 0.01 µM, P or Q . Mark your answer with the label of the selected entry.
Return: P
(P: 84.7%, Q: 54.7%)

----------
System: Monoamineoxidase B type human-derived enzyme (Homo sapiens)
Sequence (P27338 1-520): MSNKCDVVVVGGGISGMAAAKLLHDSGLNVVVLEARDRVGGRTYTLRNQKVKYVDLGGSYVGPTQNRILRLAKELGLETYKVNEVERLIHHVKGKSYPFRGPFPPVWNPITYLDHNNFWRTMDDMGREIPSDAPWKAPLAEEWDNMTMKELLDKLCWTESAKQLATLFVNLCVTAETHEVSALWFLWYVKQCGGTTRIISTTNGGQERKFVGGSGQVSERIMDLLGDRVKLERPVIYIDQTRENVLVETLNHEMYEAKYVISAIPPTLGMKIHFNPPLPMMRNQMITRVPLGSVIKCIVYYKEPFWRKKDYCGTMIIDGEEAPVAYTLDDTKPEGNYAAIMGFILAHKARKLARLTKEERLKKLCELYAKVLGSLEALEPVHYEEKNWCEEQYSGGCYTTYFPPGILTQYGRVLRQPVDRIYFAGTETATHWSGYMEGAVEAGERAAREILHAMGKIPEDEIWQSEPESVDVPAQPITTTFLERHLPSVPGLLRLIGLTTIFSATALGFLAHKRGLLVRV
Test Name: Inhibitory effects on the activity of MAO-B (Amplex Red fluorescence, benzylamine substrate)
Assay type: biochemical
Particulars: treatment concentration 10 nM; read-out: Inhibitory effects (%) on the activity of MAO-B
Experimental Endpoint: inhibition at 0.01 µM (%)

// known answers, use as guide
CC(C)c1ccc(COc2ccc(-c3cc(COC(N)=O)on3)cc2)cc1 : 84.4
NCCCNC(=O)OCc1cc(-c2ccc(OCc3ccccc3)cc2)no1 : 52.9
Cc1cccc(CNc2ccc(-c3cc(COC(N)=O)on3)cc2)c1 : 80.5
NC(=O)OCc1cc(-c2ccc(OCc3cccc(C=NO)c3)cc2)no1 : 91.7
Cc1ccccc1CNc1ccc(-c2cc(COC(N)=O)on2)cc1 : 79.7
NC(=O)NCc1cc(-c2ccc(OCc3ccccc3)cc2)no1 : 96.1
NC(=O)OCc1cc(-c2ccc(OCc3ccccc3)cc2Cl)no1 : 88.3

I: Cc1ccccc1COc1ccc(-c2cc(COC(N)=O)on2)cc1
II: NC(=O)OCCNCc1cc(-c2ccc(OCc3ccccc3)cc2)no1
Enquiry: Decide: I or II , by lowest recorded inhibition at 0.01 µM. Mark your answer with the label of the selected entry.
Return: II

----------
System: UniProt P27338
Sequence (P27338 1-520): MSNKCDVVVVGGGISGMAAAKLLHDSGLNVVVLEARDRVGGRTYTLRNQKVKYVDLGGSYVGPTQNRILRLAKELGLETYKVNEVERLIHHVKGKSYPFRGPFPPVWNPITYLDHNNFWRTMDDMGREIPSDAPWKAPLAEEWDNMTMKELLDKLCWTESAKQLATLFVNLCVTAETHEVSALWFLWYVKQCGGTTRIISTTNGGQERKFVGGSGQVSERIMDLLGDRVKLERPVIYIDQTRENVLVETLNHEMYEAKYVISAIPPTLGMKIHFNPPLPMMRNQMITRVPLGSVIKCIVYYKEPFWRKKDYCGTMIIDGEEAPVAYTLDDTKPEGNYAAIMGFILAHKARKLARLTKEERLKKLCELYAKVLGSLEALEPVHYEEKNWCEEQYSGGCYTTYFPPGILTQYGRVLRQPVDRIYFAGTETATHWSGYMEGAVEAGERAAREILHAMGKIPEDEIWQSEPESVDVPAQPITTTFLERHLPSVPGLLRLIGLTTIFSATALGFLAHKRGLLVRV
Test Name: Inhibitory effects on the activity of MAO-B (Amplex Red fluorescence, benzylamine substrate)
Type: biochemical
Particulars: treatment concentration 10 nM; read-out: Inhibitory effects (%) on the activity of MAO-B
Method: Monoamineoxidase A or B type human-derived enzyme (5 mg/ml) was each diluted with 0.05 M sodium phosphate buffer (pH 7.4) to yield a dilution of 1:200, and then 100 μl of an enzyme buffer containing 2 μl of a compound 1 solution at the corresponding concentration was placed in a test plate (flat-bottom) and incubated for 30 minutes. […]
Experimental Endpoint: inhibition at 0.01 µM (%)

I: COC(=O)c1ccc(COc2ccc(-c3cc(COC(N)=O)on3)cc2)cc1 [Example 27]
II: NC(=O)OCc1cc(-c2ccc(OCc3nc4ccccc4s3)cc2)no1 [Example 64]
Enquiry: Lab note: record which item had the higher inhibition at 0.01 µM, I or II . Mark your answer with the label of the selected entry.
Return: I
(I: 75.2%, II: 32.8%)

Data credit: patent US8828992B2
